Please provide measured DC50 for the entries that follow.
Molecular target: BRD4 (Homo sapiens, UniProt O60885)
Assay: BRD4 protein degradation by western blotting in RPMI2650 cells (24 h treatment)
Type: cell-based
Design: To evaluate the resolution of PROTAC for BRD4 expressed in cells; endogenous in cells; host or cells: RPMI2650
Conditions: RPM12650, read-out: BRD4 (DC50)

Prompt: Requested field: DC50. Item: CC[C@@H]1c2nnc(C)n2-c2cnc(Nc3ccc(C(=O)NCCOCCOCCOCCNc4cccc5cnn(C6CCC(=O)NC6=O)c(=O)c45)cc3OC)nc2N1CC1CCCCC1 (some centres unmarked)
Response: < 100 nM

Prompt: Requested field: DC50. Item: CC[C@@H]1c2nnc(C)n2-c2cnc(Nc3ccc(C(=O)N4CCO[C@@H](CN5CCN(c6ccc7c(=O)n(C8CCC(=O)NC8=O)nc(C)c7c6)CC5)C4)cc3OC)nc2N1CC1CCCCC1 (some centres unmarked)
Response: < 100 nM

Prompt: Requested field: DC50. Item: CC[C@H]1c2nnc(C)n2-c2cnc(Nc3ccc(C(=O)N4CCN(c5ccc(NC6CCC(=O)N(C)C6=O)cc5F)CC4)c(OC)c3)nc2N1CC1CCCCC1 (some centres unmarked)
Response: > 1000 nM

Prompt: Requested field: DC50. Item: CC[C@@H]1c2nnc(C)n2-c2cnc(Nc3ccc(C(=O)NC4CCN(CCCN5CCN(c6ccc(NC7CCC(=O)NC7=O)cc6F)CC5)CC4)cc3OC)nc2N1CC1CCCCC1 (some centres unmarked)
Response: > 1000 nM

Prompt: Requested field: DC50. Item: CC[C@@H]1c2nnc(C)n2-c2cnc(Nc3ccc(C(=O)N4CCN(c5cccc6c(C)nn(C7CCC(=O)NC7=O)c(=O)c56)CC4)cc3OC)nc2N1CC1CCCCC1 (some centres unmarked)
Response: < 100 nM

---

Target: BRD4 (Homo sapiens, UniProt O60885)
Assay: BRD4 protein degradation by western blotting in RPMI2650 cells (24 h treatment)
Type: cell-based
Design: To evaluate the resolution of PROTAC for BRD4 expressed in cells; endogenous in cells; host or cells: RPMI2650
Conditions: read-out: BR04 (DC50), RPMI2650
Please provide measured DC50 for the entries that follow.

Prompt: Requested field: DC50. Item: Cc1sc2c(c1C)C(c1ccc(Cl)cc1)=N[C@@H](CC(=O)N1CC(N3CCN(c4ccc5c(=O)n(C6CCC(=O)NC6=O)nc(C)c5c4)CC3)C1)c1nnc(C)n1-2 (stereo partly shown) [ICT-0000974]
Response: < 100 nM

Prompt: Requested field: DC50. Item: Cc1sc2c(c1C)C(c1ccc(Cl)cc1)=N[C@@H](CC(=O)N1CCC(CN3CCN(c4cc5c(=O)n(C6CCC(=O)NC6=O)ncc5cc4F)CC3)CC1)c1nnc(C)n1-2 (stereo partly shown) [ICT-0000972]
Response: < 100 nM

Prompt: Requested field: DC50. Item: Cc1sc2c(c1C)C(c1ccc(Cl)cc1)=N[C@@H](CC(=O)Nc1ccc(OCCCCCc3ccc4c(=O)n(C5CCC(=O)NC5=O)ncc4c3)cc1)c1nnc(C)n1-2 (stereo partly shown) [ICT-0001411]
Response: > 1000 nM

Prompt: Requested field: DC50. Item: Cc1sc2c(c1C)C(c1ccc(Cl)cc1)=N[C@@H](CC(=O)Nc1ccc(CN3CCN(c4ccc(NC5CCC(=O)NC5=O)cc4F)CC3)cc1)c1nnc(C)n1-2 (stereo partly shown) [ICT-0001441]
Response: < 100 nM

Prompt: Requested field: DC50. Item: Cc1sc2c(c1C)C(c1ccc(Cl)cc1)=N[C@@H](CC(=O)N1CC(N3CCN(c4ccc5c(=O)n(C6CCC(=O)NC6=O)ncc5c4)CC3)C1)c1nnc(C)n1-2 (stereo partly shown) [ICT-0000973]
Response: < 100 nM

Prompt: Requested field: DC50. Item: Cc1sc2c(c1C)C(c1ccc(Cl)cc1)=N[C@@H](CC(=O)N1CCC(CN3CCN(c4cc5cnn(C6CCC(=O)NC6=O)c(=O)c5cc4F)CC3)CC1)c1nnc(C)n1-2 (stereo partly shown) [ICT-0000971]
Response: < 100 nM

Prompt: Requested field: DC50. Item: Cc1sc2c(c1C)C(c1ccc(Cl)cc1)=N[C@@H](CC(=O)Nc1ccc(N3CCN(c4ccc5c(=O)n(C6CCC(=O)NC6=O)nc(C)c5c4)CC3)cc1)c1nnc(C)n1-2 (stereo partly shown) [ICT-0001410]
Response: < 100 nM

---

Molecular target: BRD4 (Homo sapiens, UniProt O60885)
Assay: BRD4 protein degradation by western blotting in RPMI2650 cells (24 h treatment)
Assay type: cell-based
Design: To evaluate the resolution of PROTAC for BRD4 expressed in cells; endogenous in cells; host or cells: RPMI2650
Conditions: read-out: BR04 (DC50), RPMI2650
Please provide measured DC50 for the entries that follow.

Prompt: Requested read-out DC50, target or system BRD4 (Homo sapiens, UniProt O60885), entry Cc1sc2c(c1C)C(c1ccc(Cl)cc1)=N[C@@H](CC(=O)Nc1ccc(CN3CCN(c4ccc5c(=O)n(C6CCC(=O)NC6=O)nc(C)c5c4)CC3)cc1)c1nnc(C)n1-2 (some centres unmarked)
Response: < 0.1 µM

Prompt: Requested read-out DC50, target or system BRD4 (Homo sapiens, UniProt O60885), entry Cc1sc2c(c1C)C(c1ccc(Cl)cc1)=N[C@@H](CC(=O)Nc1ccc(OCCCC#Cc3ccc4c(=O)n(C5CCC(=O)NC5=O)ncc4c3)cc1)c1nnc(C)n1-2 (some centres unmarked)
Response: > 1 µM

Prompt: Requested read-out DC50, target or system BRD4 (Homo sapiens, UniProt O60885), entry Cc1sc2c(c1C)C(c1ccc(Cl)cc1)=N[C@@H](CC(=O)N1CCC(CN3CCN(c4cc5c(C)nn(C6CCC(=O)NC6=O)c(=O)c5cc4F)CC3)CC1)c1nnc(C)n1-2 (some centres unmarked)
Response: < 0.1 µM

Prompt: Requested read-out DC50, target or system BRD4 (Homo sapiens, UniProt O60885), entry Cc1sc2c(c1C)C(c1ccc(Cl)cc1)=N[C@@H](CC(=O)Nc1ccc(OC[C@@H]3CN(c4ccc5c(=O)n(C6CCC(=O)NC6=O)nc(C)c5c4)CCO3)cc1)c1nnc(C)n1-2 (some centres unmarked)
Response: < 0.1 µM

Prompt: Requested read-out DC50, target or system BRD4 (Homo sapiens, UniProt O60885), entry Cc1sc2c(c1C)C(c1ccc(Cl)cc1)=N[C@@H](CC(=O)N1CCC(CN3CCN(c4ccc5c(C)nn(C6CCC(=O)NC6=O)c(=O)c5c4)CC3)CC1)c1nnc(C)n1-2 (some centres unmarked)
Response: < 0.1 µM

---

Please provide measured IC50 for the entries that follow.
Tested on: RPMI2650
Assay: Cancer cell antiproliferative activity / cell viability in RPMI2650 cells (72 h treatment)
Format: cell-based
Conditions: Homo sapiens, RPMI-2650, RPM12650, read-out: Cell Viatility (IC50)

Prompt: Requested read-out IC50, target or system RPMI2650, entry CC[C@@H]1c2nnc(C)n2-c2cnc(Nc3ccc(C(=O)N4CC(CN5CCN(c6ccc7c(=O)n(C8CCC(=O)NC8=O)nc(C)c7c6)CC5)C4)cc3OC)nc2N1CC1CCCCC1 (stereo partly shown) [ICT-0001557]
Response: > 1 µM

Prompt: Requested read-out IC50, target or system RPMI2650, entry CC[C@@H]1c2nnc(C)n2-c2cnc(Nc3ccc(C(=O)N4CCN(CCNc5ccc6c(=O)n(C7CCC(=O)NC7=O)ncc6c5)CC4)cc3OC)nc2N1CC1CCCCC1 (stereo partly shown) [ICT-0001603]
Response: > 1 µM

Prompt: Requested read-out IC50, target or system RPMI2650, entry CC[C@H]1c2nnc(C)n2-c2cnc(Nc3ccc(C(=O)N4CCN(c5ccc(NC6CCC(=O)N(C)C6=O)cc5F)CC4)c(OC)c3)nc2N1CC1CCCCC1 (stereo partly shown) [ICT-0001554]
Response: > 1 µM

Prompt: Requested read-out IC50, target or system RPMI2650, entry CC[C@@H]1c2nnc(C)n2-c2cnc(Nc3ccc(C(=O)NCCCC#Cc4ccc5c(=O)n(C6CCC(=O)NC6=O)ncc5c4)cc3OC)nc2N1CC1CCCCC1 (stereo partly shown) [ICT-0001515]
Response: > 1 µM

Prompt: Requested read-out IC50, target or system RPMI2650, entry CC[C@@H]1c2nnc(C)n2-c2cnc(Nc3ccc(C(=O)N4CCN(c5ccc(NC6CCC(=O)NC6=O)cc5F)CC4)cc3OC)nc2N1CC1CCCCC1 (stereo partly shown) [ICT-0001517]
Response: < 0.1 µM

Prompt: Requested read-out IC50, target or system RPMI2650, entry CC[C@@H]1c2nnc(C)n2-c2cnc(Nc3ccc(C(=O)NCCNc4cccc5cnn(C6CCC(=O)NC6=O)c(=O)c45)cc3OC)nc2N1CC1CCCCC1 (stereo partly shown) [ICT-0001558]
Response: > 1 µM

Prompt: Requested read-out IC50, target or system RPMI2650, entry CC[C@@H]1c2nnc(C)n2-c2cnc(Nc3ccc(C(=O)N4CCN(CCNc5cccc6cnn(C7CCC(=O)NC7=O)c(=O)c56)CC4)cc3OC)nc2N1CC1CCCCC1 (stereo partly shown) [ICT-0001601]
Response: < 0.1 µM

Prompt: Requested read-out IC50, target or system RPMI2650, entry CC[C@@H]1c2nnc(C)n2-c2cnc(Nc3ccc(C(=O)NC4CCN(CCCC#Cc5ccc6c(=O)n(C7CCC(=O)NC7=O)ncc6c5)CC4)cc3OC)nc2N1CC1CCCCC1 (stereo partly shown) [ICT-0001534]
Response: > 1 µM

Prompt: Requested read-out IC50, target or system RPMI2650, entry CC[C@@H]1c2nnc(C)n2-c2cnc(Nc3ccc(C(=O)N4CCN(CCNc5cccc6c(=O)n(C7CCC(=O)NC7=O)ncc56)CC4)cc3OC)nc2N1CC1CCCCC1 (stereo partly shown) [ICT-0001602]
Response: > 1 µM

Prompt: Requested read-out IC50, target or system RPMI2650, entry CC[C@@H]1c2nnc(C)n2-c2cnc(Nc3ccc(C(=O)N4CCC(N5CCN(c6ccc7c(=O)n(C8CCC(=O)NC8=O)nc(C)c7c6)CC5)CC4)cc3OC)nc2N1CC1CCCCC1 (stereo partly shown) [ICT-0001556]
Response: > 1 µM
